Test system: HL-60(TB) leukemia
Assay: NCI tumour cell line growth inhibition, 48 h
Assay readout: TGI

These solved cases illustrate the format of a correct answer.
CC1=CC(C)C(O)C(C)/C=C/C(O)C/C=C(/C)C(=O)CC(O)C(C)\C=C/C=C/C=C\C(=O)NC2=C(O)c3cc(C)c(O)c(c3C(=O)C2=O)C1=O (stereo not given)	> 100 µM
C=CCSc1n[nH]c(-c2cccs2)n1	> 100 µM
CS(=O)(=O)C(=Cc1ccccc1Cl)S(C)(=O)=O	> 100 µM
C/C=C/C=C/[C@H]1Cc2cc(O)cc(O)c2O1	92.8 µM
CC1(C)[C@H](O)CC[C@]2(C)C3=CC[C@@]4(C)[C@@H]5C[C@](C)(CO)CC[C@]5(C)CC[C@]4(C)C3=CC[C@@H]12	> 100 µM

[ask] Returns the measured TGI for the input compound. Input: Cc1ccc2c(c1)NC(=O)C(N=[N+]=[N-])(c1ccccc1)C2=O (stereo not given)
[reply] 37.5 µM

[ask] Need TGI, item CC(NC1CCC[C@H]1O)c1ccccc1 (mixture of isomers)
[reply] > 100 µM

[ask] Recorded TGI for CN1c2ccccc2C2c3c(O)ccc(O)c3C=C([N+](=O)[O-])C21 (stereo not given) , please?
[reply] 3.17 µM

[ask] Quick one: TGI of O=C(Nc1ccc(-n2cc(-c3ccncc3)c(-c3ccc(Cl)c(O)c3)n2)cc1)c1cc(Cl)cc(Cl)c1 ?
[reply] > 31.6 µM

[ask] Returns the measured TGI for the input compound. Input: Cc1ccc(C2SC(N)=Nc3c2c(C)nn3C(=O)c2ccncc2)cc1 (stereo not given)
[reply] > 10 µM
